- Test system: HN5 tumor cells
- Assay comment: Method C: Cell Growth Inhibition Assay (CellTiter-Glo), HN5
- Assay type: cell-based
- Stated conditions: Homo sapiens, 72 h, 3 days, 4-parameter fit
pIC50: −log10 of the molar value. Counter-ions that a name gives are not always drawn.
# pIC50 annotations

Nc1nc(-c2cccc(C(=O)Nc3c(F)cccc3F)c2)c(-c2ccnc(Nc3cccc(CN4CCCC4)c3)n2)s1	6.00 to 7.00

Q) I am curious: what pIC50 value has been reported for "CN(C)CCOc1ccc(Nc2nccc(-c3sc(N)nc3-c3cccc(NC(=O)c4cc(F)ccc4F)c3)n2)cc1Cl" ?
A) > 7.00

Q) Another: "O=C(Nc1cccc(-c2nc(NCCCN3CCOCC3)sc2-c2ccnc(Nc3cccc(CN4CCCC4)c3)n2)c1)c1c(F)cccc1F"
A) 6.00 to 7.00

Q) Another compound to look at: CCNc1nc(-c2cccc(NC(=O)c3c(F)cccc3F)c2)c(-c2ccnc(Nc3ccc(CCN4CCCC4)c(F)c3)n2)s1 [Example 26, trifluoroacetate]
A) 6.00 to 7.00

Q) Again, but for "CCc1nc(-c2cccc(NC(=O)c3c(F)cccc3F)c2)c(-c2ccnc(Nc3ccc(OCCN(C)C)c(F)c3)n2)s1"
A) 6.00 to 7.00

Q) Do the same for "CN(C)c1nc(-c2cccc(NC(=O)c3c(F)cccc3F)c2)c(-c2ccnc(Nc3ccc(OCCN4CCCC4)c(Cl)c3)n2)s1" please
A) 6.00 to 7.00

###

- Tested on: Colo205 tumor cells
- Assay comment: Method C: Cell Growth Inhibition Assay (CellTiter-Glo), Colo205
- Format: cell-based
- Stated conditions: Homo sapiens, COLO 205, 72 h, 3 days, 4-parameter fit
pIC50: −log10 of the molar value. Where a name gives a salt, the structure may show the parent alone.
Reported endpoint: pIC50

Take a look at these entries with their results.
Cc1nc(-c2cccc(NC(=O)c3c(F)cccc3F)c2)c(-c2ccnc(Nc3ccc(OC4CCNCC4)c(F)c3)n2)s1	6.00 to 7.00
CC(=O)N1CCC(Oc2ccc(Nc3nccc(-c4sc(C)nc4-c4cccc(NC(=O)c5c(F)cccc5F)c4)n3)cc2F)CC1	< 6.00
COCCNc1nc(-c2cccc(NC(=O)c3c(F)cccc3F)c2)c(-c2ccnc(Nc3ccc(OCCN4CCCC4)c(Cl)c3)n2)s1	6.00 to 7.00
CN(C)CCOc1ccc(Nc2nccc(-c3sc(NCCCN4CCOCC4)nc3-c3cccc(NC(=O)c4c(F)cccc4F)c3)n2)cc1Cl	6.00 to 7.00
NS(=O)(=O)CCc1cccc(Nc2nccc(-c3scnc3-c3cccc(NC(=O)c4cc(F)ccc4F)c3)n2)c1 [Example 100, trifluoroacetate]	6.00 to 7.00

Please find the next molecule below.
Q) // lookup pIC50 | system=Colo205 tumor cells | key= "O=C(Nc1cccc(-c2nc(N3CCC3)sc2-c2ccnc(Nc3ccc(OCCN4CCCC4)c(Cl)c3)n2)c1)c1c(F)cccc1F"
A) < 6.00

###

Entries and their pIC50 values follow.
- Tested on: SK-MEL-28 tumor cells
- Assay comment: Method C: Cell Growth Inhibition Assay (CellTiter-Glo), SK-MEL-28
- Type: cell-based
- Stated conditions: Homo sapiens, SK-MEL-28, 72 h, 3 days, 4-parameter fit
pIC50: −log10 of the molar value. Counter-ions that a name gives are not always drawn.

Example entries and their recorded answers appear below.
CN(C)CCOc1ccc(Nc2nccc(-c3sc(N(C)C)nc3-c3cccc(NC(=O)c4c(F)cccc4F)c3)n2)cc1Cl [Example 37]	6.00 to 7.00
COc1cccc(C(=O)Nc2cccc(-c3nc(C)sc3-c3ccnc(Nc4ccc5c(c4)CN(C)CC5)n3)c2)c1 [Example 132, trifluoroacetate]	< 6.00
COc1ccc(Nc2nccc(-c3sc(N)nc3-c3cccc(NC(=O)c4c(F)cccc4F)c3)n2)cc1OCCN(C)C [Example 2]	6.00 to 7.00
CC(C)c1nc(-c2cccc(NC(=O)c3c(F)cccc3F)c2)c(-c2ccnc(Nc3ccc(OCCN4CCCC4)c(Cl)c3)n2)s1 [Example 121]	6.00 to 7.00
CN(C)CCOc1ccc(Nc2nccc(-c3sc(N4CCN(C)CC4)nc3-c3cccc(NC(=O)c4c(F)cccc4F)c3)n2)cc1Cl [Example 45]	< 6.00

Pending compound:
Q) Need pIC50, item CC(=O)N1CCC(Oc2ccc(Nc3nccc(-c4sc(C)nc4-c4cccc(NC(=O)c5c(F)cccc5F)c4)n3)cc2F)CC1 [Example 109]
A) < 6.00
